Tested on: KM12 colon
EXPERIMENT_DESCRIPTION: NCI-60 one-dose screen, 48 h (100 = growth as untreated, 0 = no growth, -100 = all killed)
MEASUREMENT_CONDITIONS: 10 µM unless noted
About 83,000 compounds went through this panel and 20% of them were active in at least one assay; those are over-represented in the sample as a whole.
Doc: threshold 70% (exclusive). Items with growth beneath it return y; others return n.

{"columns": ["MOLECULE", "CATEGORY_LABEL"],
 "data": [
  ["O=C(O)c1cccc2c1-c1ccc(Cl)cc1C2", "n"],
  ["Cc1ccncc1C(=O)O", "n"],
  ["CC(CNc1nc(Nc2ccc(Cl)c(Cl)c2)nc(C(Cl)(Cl)Cl)n1)N(C)C (stereo not drawn)", "y"]
]}

Ask: hey, is growth for C=C(C)[C@@H]1CC[C@]2(C(=O)O)CC[C@]3(C)[C@H](CC[C@@H]4[C@@]5(C)C/C(=C/c6ccc(OC)cc6)C(=O)C(C)(C)[C@@H]5CC[C@]43C)[C@@H]12 lower than 70% or not?
Result: y

Ask: Just wondering, is growth of NC(N)=N/N=C/c1ccc(-c2ccc(-c3ccc(Cl)cn3)s2)cc1 below 70%?
Result: y

Ask: growth strictly < 70% for this molecule? CC(C)C[C@@H](NC(=O)[C@@H](Cc1ccccc1)NC(=O)c1cnccn1)B1O[C@H]2[C@H](O)[C@@H](C(=O)NCCCC[C@@H]3NC(=O)[C@@H](Cc4ccccc4)NC(=O)[C@H](CC(=O)O)NC(=O)CNC(=O)[C@H](CCCN=C(N)N)NC3=O)O[C@@H](CN)[C@H]2O1
Result: y

Ask: A record lists Nc1ccccc1NC(=O)c1ccc(CN2CCC/C(=C\c3ccccn3)C2=O)cc1 . Is its growth below 70%?
Result: y
